Target: κ opioid receptor (Homo sapiens, UniProt P41145)
Construct: expressed in transfected cells
Sequence (P41145 whole entry): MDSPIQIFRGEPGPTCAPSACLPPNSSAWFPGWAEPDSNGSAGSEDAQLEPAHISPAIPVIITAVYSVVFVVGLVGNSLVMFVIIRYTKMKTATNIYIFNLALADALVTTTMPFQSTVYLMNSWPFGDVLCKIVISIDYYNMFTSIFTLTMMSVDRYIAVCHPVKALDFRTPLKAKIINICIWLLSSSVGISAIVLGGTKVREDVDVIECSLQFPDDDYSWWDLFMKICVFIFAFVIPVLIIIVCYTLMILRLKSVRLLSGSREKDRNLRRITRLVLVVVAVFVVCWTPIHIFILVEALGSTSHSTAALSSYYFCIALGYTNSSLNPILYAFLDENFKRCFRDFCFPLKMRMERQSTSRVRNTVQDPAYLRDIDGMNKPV
Test: Inhibition of U69,593-stimulated [35S]GTPγS binding
Format: biochemical
Details: cloned human κ receptor, agonist U69,593, [35S]GTPγS binding; read-out: κ, U69,593 Ke
Reported Kb values for a set of compounds
readout.name: Kb (nM)

[[record]]
compound = "CC(C)[C@@H](CN1CCC(C(F)F)CC1)NC(=O)[C@H]1Cc2ccc(O)cc2CN1"
test_system = "κ opioid receptor (Homo sapiens, UniProt P41145)"
readout_name = "Kb"
measured = 3.45

[[record]]
compound = "CC(C)[C@@H](CN1CCC(N(C)C)CC1)NC(=O)[C@H]1Cc2ccc(O)cc2CN1"
test_system = "κ opioid receptor (Homo sapiens, UniProt P41145)"
readout_name = "Kb"
measured = 8.08

[[record]]
compound = "CC(C)[C@@H](CN1CCC(C)(C)CC1)NC(=O)[C@H]1Cc2ccc(O)cc2CN1"
test_system = "κ opioid receptor (Homo sapiens, UniProt P41145)"
readout_name = "Kb"
measured = 2.09

[[record]]
compound = "CC(C)[C@@H](CN1CCC(F)(F)CC1)NC(=O)[C@H]1Cc2ccc(O)cc2CN1"
test_system = "κ opioid receptor (Homo sapiens, UniProt P41145)"
readout_name = "Kb"
measured = 11.8

[[record]]
compound = "CC(C)CN(CC(C)C)C[C@@H](NC(=O)[C@H]1Cc2ccc(O)cc2CN1)C(C)C"
test_system = "κ opioid receptor (Homo sapiens, UniProt P41145)"
readout_name = "Kb"
measured = 137

[[record]]
compound = "COC1CCN(C[C@@H](NC(=O)[C@H]2Cc3ccc(O)cc3CN2)C(C)C)CC1"
test_system = "κ opioid receptor (Homo sapiens, UniProt P41145)"
readout_name = "Kb"
measured = 6.53

[[record]]
compound = "CC(C)[C@@H](CN1CCN(C)CC1)NC(=O)[C@H]1Cc2ccc(O)cc2CN1"
test_system = "κ opioid receptor (Homo sapiens, UniProt P41145)"
readout_name = "Kb"
measured = 98.8

[[record]]
compound = "CC(C)[C@@H](CN1CCCCC1C)NC(=O)[C@H]1Cc2ccc(O)cc2CN1 (some centres unmarked)"
test_system = "κ opioid receptor (Homo sapiens, UniProt P41145)"
readout_name = "Kb"
measured = 15.1

